Target: CB1 (mutant) (Homo sapiens, UniProt P21554)
Sequence (P21554 1-417, change not shown): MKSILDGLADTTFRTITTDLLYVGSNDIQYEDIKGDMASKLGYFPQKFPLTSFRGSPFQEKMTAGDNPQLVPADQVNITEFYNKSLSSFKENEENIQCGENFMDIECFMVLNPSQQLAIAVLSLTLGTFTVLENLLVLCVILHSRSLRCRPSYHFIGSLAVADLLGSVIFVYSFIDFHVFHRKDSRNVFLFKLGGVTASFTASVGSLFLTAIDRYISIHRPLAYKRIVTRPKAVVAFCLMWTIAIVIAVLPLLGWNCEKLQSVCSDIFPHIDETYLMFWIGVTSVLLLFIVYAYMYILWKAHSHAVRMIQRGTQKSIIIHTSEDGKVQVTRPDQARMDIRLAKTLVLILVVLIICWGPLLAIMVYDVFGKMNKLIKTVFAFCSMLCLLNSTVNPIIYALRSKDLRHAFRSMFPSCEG
Assay: R-SAT functional receptor assay, CB1 (mutant, truncated after amino acid 417)
Type: cell-based
Conditions: Appendix A; R-SAT CB1; receptor form (mutant or wild-type) not stated; read-out: pIC50 (converted)
recorded.metric: log10 IC50 (log10 of the value in nM)

{"compound": "COCCNC(=O)c1ccc2c(c1)N=C(c1cccc(Cl)c1)c1ccccc1S2 [drawing 849]", "data.value": 1.10}
{"compound": "COCCNC(=O)c1ccc2c(c1)N=C(c1ccccc1F)c1ccccc1S2", "data.value": 2.00}
{"compound": "CCCC1=Nc2cc(C(=O)NCCc3cc(OC)ccc3OC)ccc2Sc2ccccc21 [drawing 1051]", "data.value": 1.50}
{"compound": "CCOC(=O)c1ccc(C2=Nc3cc(C(=O)NCc4ccccn4)ccc3Sc3ccccc32)cc1 [drawing 874]", "data.value": 2.30}
{"compound": "O=C(NCCc1cccnc1)c1ccc2c(c1)N=C(c1ccccc1Cl)c1ccccc1S2", "data.value": 2.20}
{"compound": "CCCC1=Nc2cc(C(=O)NC(C)CCc3ccccc3)ccc2Sc2ccccc21 (stereo not shown)", "data.value": 1.60}
{"compound": "CCCCN(C)C(=O)c1ccc2c(c1)N=C(c1ccc(Cl)s1)c1ccccc1S2", "data.value": 2.00}
{"compound": "CCCCCC1=Nc2cc(C(=O)N3CCN(c4ccc(C)cc4C)CC3)ccc2Sc2ccccc21", "data.value": 2.30}
{"compound": "O=C(NC1CCCCC1)c1ccc2c(c1)N=C(c1ccc(Cl)cc1)c1ccccc1S2 [drawing 738]", "data.value": 1.90}
{"compound": "CCCCNC(=O)c1ccc2c(c1)N=C(c1ccc(Cl)s1)c1ccccc1S2 [drawing 633]", "data.value": 0.70}
{"compound": "CCCC1=NC2=C(CCC(C(=O)NCCc3ccc(OCC)cc3)=C2)Sc2ccccc21", "data.value": 2.20}
{"compound": "O=C(NCCc1ccccc1)c1ccc2c(c1)N=C(c1ccc(Cl)cc1)c1ccccc1S2 [drawing 743]", "data.value": 0.90}
{"compound": "CCCCN(CCCC)CCNC(=O)c1ccc2c(c1)N=C(CCC)c1ccccc1S2", "data.value": 2.60}
{"compound": "C[C@@H]1CCC[C@H](C)N1NC(=O)c1ccc2c(c1)N=C(c1ccc(Cl)cc1)c1ccccc1S2 [drawing 1133]", "data.value": 1.60}
{"compound": "COc1ccc(C2=Nc3cc(C(=O)NCc4ccc(S(N)(=O)=O)cc4)ccc3Sc3ccccc32)cc1", "data.value": 2.20}
{"compound": "Cc1cccnc1C1=Nc2cc(C(=O)NCc3ccco3)ccc2Sc2ccccc21", "data.value": 2.50}
{"compound": "CCCC1=Nc2cc(C(=O)NCCc3ccc(SC)cc3)ccc2Sc2ccccc21", "data.value": 2.40}
{"compound": "CCCC1=Nc2cc(C(=O)NCC(C)c3ccccc3)ccc2Sc2ccccc21 (stereo not shown) [drawing 735]", "data.value": 0.90}
{"compound": "O=C(NCCc1ccncc1)c1ccc2c(c1)N=C(c1ccccc1Cl)c1ccccc1S2", "data.value": 2.50}
{"compound": "COc1ccc(C2=Nc3cc(C(=O)NNC(=O)Cc4ccccc4)ccc3Sc3ccccc32)cc1", "data.value": 1.70}
{"compound": "CCCC1=Nc2cc(C(=O)NCCCN3CCN(C4CCCCC4)CC3)ccc2Sc2ccccc21", "data.value": 2.80}
{"compound": "CCN(CCNC(=O)c1ccc2c(c1)N=C(c1ccccc1F)c1ccccc1S2)c1ccccc1 [drawing 1117]", "data.value": 1.60}
{"compound": "CCCNC(=O)c1ccc2c(c1)N=C(c1ccc(Cl)cc1F)c1ccccc1S2 [drawing 851]", "data.value": 1.10}
{"compound": "O=C(NCc1cccnc1)c1ccc2c(c1)N=C(c1ccc(F)cc1)c1ccccc1S2 [drawing 931]", "data.value": 1.20}
{"compound": "O=C(NN1CCCC1)c1ccc2c(c1)N=C(c1ccc(F)cc1)c1ccccc1S2", "data.value": 2.20}

* * *

Parameter Binding rat Inh %: see the listing below.
Biological target: native CB1 receptors (Rattus norvegicus, UniProt P20272)
Sequence (P20272 whole entry): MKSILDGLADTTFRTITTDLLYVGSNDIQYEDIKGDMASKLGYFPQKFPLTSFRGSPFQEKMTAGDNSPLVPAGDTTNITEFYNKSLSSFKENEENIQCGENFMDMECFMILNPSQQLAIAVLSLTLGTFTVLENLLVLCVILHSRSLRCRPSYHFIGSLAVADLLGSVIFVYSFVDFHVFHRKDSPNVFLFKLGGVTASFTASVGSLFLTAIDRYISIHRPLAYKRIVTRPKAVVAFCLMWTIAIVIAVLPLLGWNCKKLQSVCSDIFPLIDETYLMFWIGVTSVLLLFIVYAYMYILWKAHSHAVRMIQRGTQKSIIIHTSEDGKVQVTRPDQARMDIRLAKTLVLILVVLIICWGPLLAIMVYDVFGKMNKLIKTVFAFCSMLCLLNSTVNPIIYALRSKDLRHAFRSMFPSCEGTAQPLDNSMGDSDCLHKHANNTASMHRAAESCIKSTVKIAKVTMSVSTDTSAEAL
Test: CB1 receptor rat binding assay ([3H]SR141716A, rat brain membranes)
Conditions: rat brain membranes, [3H]SR141716A
recorded.metric: Binding rat Inh % (%)

{"compound": "Cc1ccc(CNC(=O)c2ccc3c(c2)N=C(c2ccc(Cl)cc2F)c2ccccc2S3)o1 [drawing 1441]", "recorded.metric": "Binding rat Inh %", "unit.tag": "%", "data.value": 90}
{"compound": "CC(C)CNC(=O)c1ccc2c(c1)N=C(c1ccsc1)c1ccccc1S2 [drawing 1303]", "recorded.metric": "Binding rat Inh %", "unit.tag": "%", "data.value": 90}
{"compound": "Cc1cccc(C2=Nc3cc(C(=O)NCCC(F)(F)F)ccc3Sc3ccccc32)n1 [drawing 1308]", "recorded.metric": "Binding rat Inh %", "unit.tag": "%", "data.value": 91}
{"compound": "O=C(NN1CCCCC1)c1ccc2c(c1)N=C(c1ccc(Br)cc1)c1ccccc1S2 [drawing 1423]", "recorded.metric": "Binding rat Inh %", "unit.tag": "%", "data.value": 89}
{"compound": "CC(C)CCNC(=O)c1ccc2c(c1)N=C(c1ccc(F)cc1)c1ccccc1S2 [drawing 1330]", "recorded.metric": "Binding rat Inh %", "unit.tag": "%", "data.value": 91}

* * *

Target: CB1 (mutant) (Homo sapiens, UniProt P21554)
Assay: R-SAT functional receptor assay, CB1 (mutant, truncated after amino acid 417)
Format: cell-based
Conditions: Appendix A; R-SAT CB1; receptor form (mutant or wild-type) not stated; read-out: pIC50 (converted)
Parameter log10(IC50): see the listing below.
recorded.metric: log10(IC50) (log10 of the value in nM)

{"compound": "CC(C)CNC(=O)c1ccc2c(c1)N=C(c1ccc(F)cc1)c1ccccc1S2 [drawing 677]", "log10(IC50)": 0.80}
{"compound": "CCCC1=Nc2cc(C(=O)NCCCN3CCN(c4ccc(OC)cc4)CC3)ccc2Sc2ccccc21", "log10(IC50)": 3.40}
{"compound": "O=C(NCCc1ccc(Cl)cc1)c1ccc2c(c1)N=C(N1CCC(F)(F)CC1)c1ccccc1S2 [drawing 628]", "log10(IC50)": 1.80}
{"compound": "Cc1ccsc1C1=Nc2cc(C(=O)NCCC(F)(F)F)ccc2Sc2ccccc21 [drawing 1047]", "log10(IC50)": 1.50}
{"compound": "CCCC1=Nc2cc(C(=O)NCCc3ccc(OC)cc3OC)ccc2Sc2ccccc21 [drawing 570]", "log10(IC50)": 1.70}
{"compound": "O=C(NCc1ccncc1)c1ccc2c(c1)N=C(NCc1ccc(Cl)cc1)c1ccccc1S2", "log10(IC50)": 2.90}
{"compound": "COc1cccc(C2=Nc3cc(C(=O)NCc4ccc(C)o4)ccc3Sc3ccccc32)n1 [drawing 554]", "log10(IC50)": 1.70}
{"compound": "CCCCNC(=O)c1ccc2c(c1)N=C(N1CCCCC1)c1ccccc1S2 [drawing 683]", "log10(IC50)": 0.80}

* * *

Parameter Hypothermia 0.3 mg/kg: see the listing below.
Test system: NSA mice
Assay: Hypothermia study (block of CP 55,940-induced hypothermia)
Format: in vivo
Set-up: unit not given here
Settings: 0.3 mg/kg
recorded.metric: Hypothermia 0.3 mg/kg

{"compound": "O=C(NC1CCCCC1)c1ccc2c(c1)N=C(c1ccc(F)cc1)c1ccccc1S2 [drawing 1580]", "system.name": "NSA mice", "data.value": 28}
{"compound": "O=C(NCc1cccnc1)c1ccc2c(c1)N=C(c1ccc(F)cc1)c1ccccc1S2 [drawing 1611]", "system.name": "NSA mice", "data.value": 11}
{"compound": "Cc1csc(CNC(=O)c2ccc3c(c2)N=C(c2cccc(C)n2)c2ccccc2S3)c1 [drawing 1616]", "system.name": "NSA mice", "data.value": 42}
{"compound": "O=C(NN1CCCCC1)c1ccc2c(c1)N=C(c1ccc(F)cc1)c1ccccc1S2 [drawing 1582]", "system.name": "NSA mice", "data.value": 7}
{"compound": "CC(C)CNC(=O)c1ccc2c(c1)N=C(c1ccc(Cl)cc1)c1ccccc1S2 [drawing 1634]", "system.name": "NSA mice", "data.value": 25}
{"compound": "O=C(NN1CCCCCC1)c1ccc2c(c1)N=C(c1ccc(Cl)cc1F)c1ccccc1S2 [drawing 1563]", "system.name": "NSA mice", "data.value": 2}
{"compound": "O=C(NCc1cccnc1)c1ccc2c(c1)N=C(c1cccc(Br)c1)c1ccccc1S2 [drawing 1641]", "system.name": "NSA mice", "data.value": 0}
{"compound": "CC(C)CNC(=O)c1ccc2c(c1)N=C(c1ccc(F)cc1)c1ccccc1S2 [drawing 1636]", "system.name": "NSA mice", "data.value": 14}
{"compound": "O=C(NCCc1cccnc1)c1ccc2c(c1)N=C(c1ccc(Cl)s1)c1ccccc1S2 [drawing 1585]", "system.name": "NSA mice", "data.value": "−14"}
{"compound": "O=C(NN1CCCCCC1)c1ccc2c(c1)N=C(c1cccc(F)c1)c1ccccc1S2 [drawing 1590]", "system.name": "NSA mice", "data.value": 21}
{"compound": "CC(C)CCNC(=O)c1ccc2c(c1)N=C(c1cccc(F)c1)c1ccccc1S2 [drawing 1602]", "system.name": "NSA mice", "data.value": 0}
{"compound": "O=C(NCCCC(F)(F)F)c1ccc2c(c1)N=C(c1ccsc1)c1ccccc1S2 [drawing 1600]", "system.name": "NSA mice", "data.value": 32}
{"compound": "O=C(NCCCC(F)(F)F)c1ccc2c(c1)N=C(c1ccc(Cl)s1)c1ccccc1S2 [drawing 1554]", "system.name": "NSA mice", "data.value": 11}
{"compound": "O=C(NCc1ccco1)c1ccc2c(c1)N=C(c1cccc(Cl)c1)c1ccccc1S2 [drawing 1581]", "system.name": "NSA mice", "data.value": 24}
{"compound": "O=C(NCCCC(F)(F)F)c1ccc2c(c1)N=C(c1cccc(F)c1)c1ccccc1S2 [drawing 1606]", "system.name": "NSA mice", "data.value": 11}
{"compound": "O=C(NN1CCCCC1)c1ccc2c(c1)N=C(c1ccc(Cl)cc1)c1ccccc1S2 [drawing 1575]", "system.name": "NSA mice", "data.value": "−18"}
{"compound": "O=C(NCCCC(F)(F)F)c1ccc2c(c1)N=C(c1ccc(Cl)cc1F)c1ccccc1S2 [drawing 1552]", "system.name": "NSA mice", "data.value": 24}
{"compound": "CCCCNC(=O)c1ccc2c(c1)N=C(c1ccc(Cl)cc1)c1ccccc1S2 [drawing 1560]", "system.name": "NSA mice", "data.value": 15}
{"compound": "CCCCNC(=O)c1ccc2c(c1)N=C(c1ccc(Cl)cc1)c1ccc(F)cc1S2 [drawing 1562]", "system.name": "NSA mice", "data.value": 11}
{"compound": "O=C(NCc1ccc(F)cc1)c1ccc2c(c1)N=C(C1CCCCC1)c1ccccc1S2 [drawing 1640]", "system.name": "NSA mice", "data.value": 24}
{"compound": "O=C(NCc1ccco1)c1ccc2c(c1)N=C(c1ccc(Cl)cc1)c1ccccc1S2 [drawing 1650]", "system.name": "NSA mice", "data.value": 28}
{"compound": "O=C(NCc1ccc(F)cc1)c1ccc2c(c1)N=C(c1ccc(Cl)cc1)c1ccccc1S2 [drawing 1630]", "system.name": "NSA mice", "data.value": 18}
{"compound": "CCCNC(=O)c1ccc2c(c1)N=C(c1ccc(Cl)cc1)c1ccccc1S2 [drawing 1588]", "system.name": "NSA mice", "data.value": 29}
{"compound": "O=C(NCc1cccc(Cl)c1)c1ccc2c(c1)N=C(c1ccc(F)cc1)c1ccccc1S2 [drawing 1618]", "system.name": "NSA mice", "data.value": 16}
{"compound": "O=C(NCc1cccs1)c1ccc2c(c1)N=C(c1ccc(F)cc1)c1ccccc1S2 [drawing 1558]", "system.name": "NSA mice", "data.value": 19}
{"compound": "O=C(NCc1cccc(Cl)c1)c1ccc2c(c1)N=C(N1CCC(F)(F)CC1)c1ccccc1S2 [drawing 1652]", "system.name": "NSA mice", "data.value": "−31"}
{"compound": "O=C(NCc1cccnc1)c1ccc2c(c1)N=C(c1ccc(Cl)c(Cl)c1)c1ccccc1S2 [drawing 1565]", "system.name": "NSA mice", "data.value": 1}
{"compound": "O=C(NCc1ccco1)c1ccc2c(c1)N=C(c1ccc(F)cc1)c1ccccc1S2 [drawing 1553]", "system.name": "NSA mice", "data.value": "−11"}
{"compound": "CCCCNC(=O)c1ccc2c(c1)N=C(c1ccc(Cl)s1)c1ccccc1S2 [drawing 1568]", "system.name": "NSA mice", "data.value": 12}
